system: human SMAD7 mRNA; assay: Antisense inhibition of human SMAD7 mRNA expression in Hep3B cells by 3-10-3 cEt gapmers, 10,000 nM, electroporation (Example 2); format: cell-based; details: SMAD7 mRNA, Hep3B cells, electroporation with 10,000 nM antisense oligonucleotide, approximately 24 hours, primer probe set RTS5062, relative to untreated control cells
Strand notation (5' to 3'): a small letter for the sugar, then the base; units joined by * are phosphorothioate-linked, units joined directly phosphodiester-linked; [ ] holds rarer units or linkages, { } end groups; capitals alone tell only the bases. k = constrained ethyl (cEt); [5mC] = 5-methylcytosine; d = 2'-deoxy (DNA)
Answer f if % Inhibition is under 20%, and t if it is 20% or more.

Q) Determine whether this substance has % Inhibition no lower than 20%: 829970 (kT*kG*kG*dA*dA*dG*dG*dG*dA*dA*d[5mC]*d[5mC]*d[5mC]*k[5mC]*k[5mC]*kA; antisense) [compound 829970]
A) f

Q) Determine whether this substance has % Inhibition no lower than 20%: 829967 (k[5mC]*k[5mC]*k[5mC]*d[5mC]*d[5mC]*dA*dG*dG*dG*dA*dA*dT*dG*k[5mC]*k[5mC]*k[5mC]; antisense) [compound 829967]
A) f

Q) Determine whether this substance has % Inhibition no lower than 20%: 829842 (k[5mC]*k[5mC]*kG*dA*dG*dG*d[5mC]*dA*dA*dA*dA*dG*d[5mC]*k[5mC]*kA*kT; antisense) [compound 829842]
A) t

Q) Determine whether this substance has % Inhibition no lower than 20%: 829836 (k[5mC]*k[5mC]*kA*dG*dT*dG*dT*dG*dA*d[5mC]*d[5mC]*dG*dA*kT*k[5mC]*k[5mC]; antisense) [compound 829836]
A) t

Q) Determine whether this substance has % Inhibition no lower than 20%: 830005 (antisense k[5mC]*kT*k[5mC]*dA*d[5mC]*d[5mC]*dA*dG*dT*dT*dG*dG*dT*kT*kT*kG) [compound 830005]
A) f

Q) Determine whether this substance has % Inhibition no lower than 20%: 829944 (k[5mC]*k[5mC]*kA*dG*dT*dT*dA*dA*dT*d[5mC]*dA*dT*dT*kA*k[5mC]*kT; antisense) [compound 829944]
A) t

Q) Determine whether this substance has % Inhibition no lower than 20%: 829854 (antisense kG*k[5mC]*kT*dG*dA*d[5mC]*dT*d[5mC]*dT*dT*dG*dT*dT*kG*kT*k[5mC]) [compound 829854]
A) t

Q) Determine whether this substance has % Inhibition no lower than 20%: 829962 (k[5mC]*kT*kG*dA*dT*dT*dA*dT*dT*dA*dA*dT*dG*kG*kT*k[5mC]; antisense) [compound 829962]
A) f

Q) Determine whether this substance has % Inhibition no lower than 20%: 829852 (antisense kT*k[5mC]*kT*dT*dG*dT*dT*dG*dT*d[5mC]*d[5mC]*dG*dA*kA*kT*kT) [compound 829852]
A) t

Q) Determine whether this substance has % Inhibition no lower than 20%: 829893 (antisense kT*kG*kA*dT*d[5mC]*dT*dG*d[5mC]*dA*d[5mC]*dG*dG*dT*kA*kA*kA) [compound 829893]
A) f

Q) Determine whether this substance has % Inhibition no lower than 20%: 829993 (kG*kG*k[5mC]*dA*dG*dG*dG*d[5mC]*d[5mC]*dG*d[5mC]*dG*dA*kG*kG*k[5mC]; antisense) [compound 829993]
A) t

Q) Determine whether this substance has % Inhibition no lower than 20%: 829804 (kT*kA*kG*dT*dT*d[5mC]*dG*d[5mC]*dA*dG*dA*dG*dT*k[5mC]*kG*kG; antisense) [compound 829804]
A) t
